biological target: human TLR7 (Homo sapiens, UniProt Q9NYK1); assay: TLR7 inhibition reporter assay (HEK-Blue, SEAP); conditions: HEK-Blue cells overexpressing human TLR7, gardiquimod 7.5 μM, 22 hour incubation
Sequence (Q9NYK1 27-1049): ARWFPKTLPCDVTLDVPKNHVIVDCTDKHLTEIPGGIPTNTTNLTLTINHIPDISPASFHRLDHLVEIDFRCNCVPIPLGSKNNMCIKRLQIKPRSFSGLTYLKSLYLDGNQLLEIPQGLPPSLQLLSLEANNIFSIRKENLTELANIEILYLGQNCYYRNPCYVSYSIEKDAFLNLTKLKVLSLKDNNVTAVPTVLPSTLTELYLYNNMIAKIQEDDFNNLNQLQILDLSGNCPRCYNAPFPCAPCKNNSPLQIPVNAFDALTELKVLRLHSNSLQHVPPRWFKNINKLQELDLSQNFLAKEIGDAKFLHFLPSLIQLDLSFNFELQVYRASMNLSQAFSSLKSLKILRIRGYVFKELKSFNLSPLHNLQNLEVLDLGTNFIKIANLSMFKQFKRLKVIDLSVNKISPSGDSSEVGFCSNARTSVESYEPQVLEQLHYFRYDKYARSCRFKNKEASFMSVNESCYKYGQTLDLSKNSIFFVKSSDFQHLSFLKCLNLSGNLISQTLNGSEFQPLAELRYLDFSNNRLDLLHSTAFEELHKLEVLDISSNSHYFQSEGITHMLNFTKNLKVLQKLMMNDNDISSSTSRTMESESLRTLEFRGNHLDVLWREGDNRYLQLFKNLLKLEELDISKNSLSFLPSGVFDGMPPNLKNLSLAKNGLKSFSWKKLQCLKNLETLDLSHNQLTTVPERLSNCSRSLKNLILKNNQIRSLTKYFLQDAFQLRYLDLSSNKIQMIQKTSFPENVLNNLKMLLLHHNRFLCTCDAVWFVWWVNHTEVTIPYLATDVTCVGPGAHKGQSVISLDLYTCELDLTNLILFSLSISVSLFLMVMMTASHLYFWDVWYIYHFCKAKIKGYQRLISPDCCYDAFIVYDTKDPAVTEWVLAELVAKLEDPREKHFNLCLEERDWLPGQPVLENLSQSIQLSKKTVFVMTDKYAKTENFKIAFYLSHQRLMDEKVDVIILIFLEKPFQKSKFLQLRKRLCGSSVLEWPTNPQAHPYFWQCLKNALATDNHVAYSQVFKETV
Quantity Kind: IC50 (nM)

Solved entries (count: 5):
| Compound | IC50, nM |
| --- | --- |
| Cc1cc(-c2[nH]c3ccc(C4CCN(CCO)CC4)cc3c2C(C)C)cn2cnnc12 | 0.4 |
| CNC(=O)CN1CCC(c2ccc3[nH]c(-c4ccc5nncn5c4C)c(C(C)C)c3c2)CC1 | 40.8 |
| Cc1cc2nncn2cc1-c1[nH]c2ccc(C3CCN(CC(=O)N(C)C)CC3)cc2c1C(C)C | 65.9 |
| Cc1c(-c2[nH]c3ccc(C4CCN(CC(C)(C)O)CC4)cc3c2C(C)C)cn2cnnc2c1Cl | 0.9 |
| Cc1cc(-c2[nH]c3ccc(C4CCN(CC#N)CC4)cc3c2C(C)C)cn2c(C)nnc12 | 3.8 |

P. Cc1cc(-c2[nH]c3ccc(C4CCN(Cc5ncn(C)n5)CC4)cc3c2C(C)C)cn2c(C)nnc12
Q. Cc1c(-c2[nH]c3ccc(C4CCN(CCN5CCCS5(=O)=O)CC4)cc3c2C(C)C)cn2cnnc2c1Cl
For this pair, P and Q , which shows a numerically higher IC50? Respond using the label that marks the chosen record.
P

---

biological target: human TLR9 (Homo sapiens); test: TLR9 inhibition reporter assay (HEK-Blue, SEAP); details: HEK-Blue cells overexpressing human TLR9, ODN2006 5 nM, 22 hour incubation
Quantity Kind: IC50 (µM)

| Compound | Quantity Kind | Reported Measurement |
| --- | --- | --- |
| Cc1c(-c2[nH]c3ccc(C4CCN(C5CC(C)OC(C)C5)CC4)cc3c2C(C)C)cn2cnnc2c1C (stereo not drawn) [Example 87] | IC50 | 1.3 |

a. Cc1cc2nncn2cc1-c1[nH]c2ccc(C3CCN(C(=O)CN(C)C)CC3)cc2c1C(C)C
b. Cc1c(-c2[nH]c3ccc(C4CCN(C5CCOCC5)CC4)cc3c2C(C)C)cn2cnnc2c1Cl
# return whichever of a and b has the smaller IC50 Kindly state the label of the option you pick.
a

---

Target: human TLR9 (Homo sapiens, UniProt Q9NR96)
Sequence (Q9NR96 26-1032): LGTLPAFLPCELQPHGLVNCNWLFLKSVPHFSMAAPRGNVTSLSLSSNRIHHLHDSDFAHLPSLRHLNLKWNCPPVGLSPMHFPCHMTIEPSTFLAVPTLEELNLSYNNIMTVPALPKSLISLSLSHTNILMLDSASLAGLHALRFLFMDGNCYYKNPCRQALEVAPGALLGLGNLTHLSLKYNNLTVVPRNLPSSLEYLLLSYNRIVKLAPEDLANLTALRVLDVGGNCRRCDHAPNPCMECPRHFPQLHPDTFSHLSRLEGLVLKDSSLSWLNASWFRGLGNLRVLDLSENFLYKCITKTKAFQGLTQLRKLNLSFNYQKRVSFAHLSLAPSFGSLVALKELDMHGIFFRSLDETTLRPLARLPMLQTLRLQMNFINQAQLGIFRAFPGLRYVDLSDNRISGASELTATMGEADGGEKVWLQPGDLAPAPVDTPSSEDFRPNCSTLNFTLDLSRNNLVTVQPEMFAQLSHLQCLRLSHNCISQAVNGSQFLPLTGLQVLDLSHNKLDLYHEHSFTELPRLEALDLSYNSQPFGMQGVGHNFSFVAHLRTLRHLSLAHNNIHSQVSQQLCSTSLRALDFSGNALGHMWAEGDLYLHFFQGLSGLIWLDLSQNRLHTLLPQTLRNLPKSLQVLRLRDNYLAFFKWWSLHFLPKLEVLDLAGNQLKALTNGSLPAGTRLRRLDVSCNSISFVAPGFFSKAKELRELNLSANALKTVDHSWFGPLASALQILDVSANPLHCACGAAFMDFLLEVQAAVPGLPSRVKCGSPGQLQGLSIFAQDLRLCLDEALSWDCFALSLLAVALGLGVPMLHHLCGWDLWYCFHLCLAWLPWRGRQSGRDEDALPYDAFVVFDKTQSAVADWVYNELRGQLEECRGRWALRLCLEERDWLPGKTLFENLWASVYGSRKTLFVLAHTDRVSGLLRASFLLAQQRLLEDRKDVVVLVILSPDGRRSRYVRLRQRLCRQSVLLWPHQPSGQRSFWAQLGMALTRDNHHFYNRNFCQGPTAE
Experiment: TLR9 inhibition reporter assay (HEK-Blue, SEAP)
Conditions: HEK-Blue cells overexpressing human TLR9, ODN2006 5 nM, 22 hour incubation
pIC50: −log10 of the molar value.
Quantity Kind: pIC50

Guide cases for pIC50, answers given:
| Molecule | pIC50 |
| --- | --- |
| Cc1c(-c2[nH]c3ccc(C4CC(C)N(CC5(C)COC5)C(C)C4)cc3c2C(C)C)cn2cnnc2c1C (single isomer, unassigned) [Example 114] | 5.14 |
| Cc1c(-c2[nH]c3ccc(C4CCNCC4)cc3c2C(C)C)cn2cnnc2c1Cl [Example 10] | 5.51 |
| Cc1c(-c2[nH]c3ccc(C4CCN(C5CCOCC5)CC4)cc3c2C(C)C)ccc2nncn12 [Example 70] | 5.97 |
| Cc1c(-c2[nH]c3ccc(C4C[C@H]5CC[C@@H](C4)N5C4COC4)cc3c2C(C)C)cn2cnnc2c1C (single isomer, unassigned) [Example 122] | 5.23 |
| Cc1cc2nncn2cc1-c1[nH]c2ccc(C3CCN(C4CCOCC4)CC3)cc2c1C(C)C [Example 68] | 5.90 |
| COc1cc(-c2[nH]c3ccc(C4CCN(C(C)C)CC4)cc3c2C(C)C)cn2cnnc12 [Example 97] | 6.11 |
| Cc1c(-c2[nH]c3ccc(C4C[C@H]5CC[C@@H](C4)N5CC4(C)COC4)cc3c2C(C)C)cn2cnnc2c1C (single isomer, unassigned) [Example 120] | 5.42 |

A. Cc1c(-c2[nH]c3ccc(C4CCN(Cc5cn(C)nn5)CC4)cc3c2C(C)C)cn2cnnc2c1Cl [Example 84]
B. Cc1c(-c2[nH]c3ccc(C4CCN(C5CCOCC5)CC4)cc3c2C(C)C)cn2cnnc2c1C [Example 78]
C. Cc1cc(-c2[nH]c3ccc(C4CCN(CC(=O)N(C)C)CC4)cc3c2C(C)C)c(C)n2cnnc12 [Example 42]
Please rank these molecules by pIC50 in descending order. In your reply, arrange the labels in the requested order.
A, B, C
